Target: IRAK4 (Homo sapiens, UniProt Q9NWZ3)
Construct: endogenous in cells; host or cells: Karpas299
Sequence (Q9NWZ3 whole entry): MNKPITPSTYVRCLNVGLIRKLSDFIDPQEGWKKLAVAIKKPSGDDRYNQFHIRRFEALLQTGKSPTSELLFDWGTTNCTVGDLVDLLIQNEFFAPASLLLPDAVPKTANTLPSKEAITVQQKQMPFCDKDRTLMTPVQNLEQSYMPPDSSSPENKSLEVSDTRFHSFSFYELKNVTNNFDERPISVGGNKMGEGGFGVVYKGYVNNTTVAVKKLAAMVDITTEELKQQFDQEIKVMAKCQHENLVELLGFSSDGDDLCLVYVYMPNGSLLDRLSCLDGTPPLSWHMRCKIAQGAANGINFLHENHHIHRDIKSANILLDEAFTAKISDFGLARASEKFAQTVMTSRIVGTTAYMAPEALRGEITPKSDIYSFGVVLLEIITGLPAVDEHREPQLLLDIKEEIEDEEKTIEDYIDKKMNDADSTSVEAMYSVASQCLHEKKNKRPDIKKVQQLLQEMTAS
Assay: IRAK4 Degradation Assay with Human Serum (Karpas299, HTRF/TR-FRET)
Format: cell-based
Details: Karpas-299 in human serum, 24 hrs treatment; read-out: IRAK4 degradtion with human serum assay DC50
Protocol: IRAK4 degradation was measured using a TR-FRET-based method (Degorce, François, et al. Current chemical genomics. 2009, 3: 22). […] IRAK4 level was quantitated using the HTRF kit as described by the manufacturer manual (Cisbio). FRET signals were measured using a PHERAstar FSX reader (BMG Labtech). […] The inhibition (degradation) percentage of the compound was calculated by the following equation: […]
DC50: recorded values
Field format: number, assumed nM, no unit text.

{"columns": ["compound", "study.system", "property", "value.reported"],
 "data": [
  ["CC(C)(O)c1cc2nn([C@H]3CC[C@H](N4CCN(C[C@@H]5CCN(c6ccc7c(c6)C(=O)N(C6CCC(=O)NC6=O)C7=O)C5)CC4)CC3)cc2cc1NC(=O)c1ccc2cc(C#N)cnn12 (stereo partly shown)", "IRAK4 (Homo sapiens, UniProt Q9NWZ3)", "DC50", 8.7],
  ["COC[C@H]1CN(C2CCN(c3ccc(C4CCC(=O)NC4=O)nc3C)CC2)CCN1[C@H]1CC[C@H](n2cc3cc(NC(=O)c4ccc5cc(C#N)cnn45)c(C(C)(C)O)cc3n2)CC1 (stereo partly shown)", "IRAK4 (Homo sapiens, UniProt Q9NWZ3)", "DC50", 8.6],
  ["COc1cc(N2CC(C(=O)N3CCN([C@H]4CC[C@H](n5cc6cc(NC(=O)c7ccc8cc(C#N)cnn78)c(C(C)(C)O)cc6n5)CC4)CC3)C2)ccc1[C@H]1CCC(=O)NC1=O", "IRAK4 (Homo sapiens, UniProt Q9NWZ3)", "DC50", 6.3],
  ["CC(C)(O)c1cc2nn([C@H]3CC[C@H](N4C[C@@H]5CN(CCc6cc(F)c([C@H]7CCC(=O)NC7=O)c(F)c6)C[C@H]5C4)CC3)cc2cc1NC(=O)c1ccc2cc(C#N)cnn12", "IRAK4 (Homo sapiens, UniProt Q9NWZ3)", "DC50", 5.1],
  ["CC(C)(O)c1cc2nn([C@H]3CC[C@H](N4CCN(C(=O)C5CCN(c6cc(F)c([C@H]7CCC(=O)NC7=O)c(F)c6)CC5)CC4)CC3)cc2cc1NC(=O)c1ccc2cc(C#N)cnn12", "IRAK4 (Homo sapiens, UniProt Q9NWZ3)", "DC50", 48],
  ["CC(C)(O)c1cc2nn([C@H]3CC[C@H](N4CCN(CCc5cc(F)c([C@H]6CCC(=O)NC6=O)c(F)c5)CC4=O)CC3)cc2cc1NC(=O)c1ccc2cc(C#N)cnn12", "IRAK4 (Homo sapiens, UniProt Q9NWZ3)", "DC50", 6.3],
  ["C[C@@H]1CN(C(=O)C2CN(c3cc(F)c([C@H]4CCC(=O)NC4=O)c(F)c3)C2)CCN1[C@H]1CC[C@H](n2cc3cc(NC(=O)c4ccc5cc(C#N)cnn45)c(C(C)(C)O)cc3n2)CC1", "IRAK4 (Homo sapiens, UniProt Q9NWZ3)", "DC50", 9.8],
  ["C[C@H]1CN(C2CCN(c3cc(F)c([C@H]4CCC(=O)NC4=O)c(F)c3)CC2)CCN1[C@H]1CC[C@H](n2cc3cc(NC(=O)c4ccc5cc(C#N)cnn45)c(C(C)(C)O)cc3n2)CC1", "IRAK4 (Homo sapiens, UniProt Q9NWZ3)", "DC50", 3.6]
]}

Cn1c(=O)n(C2CCC(=O)NC2=O)c2cccc(CCCN3CCN([C@H]4CC[C@H](n5cc6cc(NC(=O)c7ccc8cc(C#N)cnn78)c(C(C)(C)O)cc6n5)CC4)CC3)c21 (stereo partly shown) yielded DC50 of 6.6

CC(C)(O)c1cc2nn([C@H]3CC[C@H](N4CCN(C(=O)C5CN(c6cc(F)c([C@H]7CCC(=O)NC7=O)c(F)c6)C5)CC4)CC3)cc2cc1NC(=O)c1ccc2cc(C(F)(F)F)cnn12 yielded DC50 of 191

CC(C)(O)c1cc2nn([C@H]3CC[C@H](N4CCN(C5CCN(c6ccc(C7CCC(=O)NC7=O)nc6)CC5)CC4)CC3)cc2cc1NC(=O)c1ccc2cc(C#N)cnn12 (stereo partly shown) yielded DC50 of 25

CC(C)(O)c1cc2nn([C@H]3CC[C@H](N4CCN(C5CN(c6cc(F)c([C@H]7CCC(=O)NC7=O)c(F)c6)C5)CC4)CC3)cc2cc1NC(=O)c1ccc2cc(C#N)cnn12 yielded DC50 of 8.3

CC(C)(O)c1cc2nn([C@H]3C[C@H](N4CCN(C(=O)C5CN(c6cc(F)c([C@H]7CCC(=O)NC7=O)c(F)c6)C5)CC4)C3)cc2cc1NC(=O)c1ccc2cc(C#N)cnn12 yielded DC50 of 11

CC(C)(O)c1cc2nn([C@H]3CC[C@H](N4CCN(C5CCN(c6cc(F)c(C7CCC(=O)NC7=O)c(F)c6)CC5)CC4)CC3)cc2cc1NC(=O)c1ccc2cc(C#N)cnn12 (stereo partly shown) yielded DC50 of 8.8

C[C@@H]1CN([C@H]2CC[C@H](n3cc4cc(NC(=O)c5ccc6cc(C#N)cnn56)c(C(C)(C)O)cc4n3)CC2)CCN1C(=O)C1CN(c2cc(F)c([C@H]3CCC(=O)NC3=O)c(F)c2)C1 yielded DC50 of 14

C[C@H]1CN([C@H]2CC[C@H](n3cc4cc(NC(=O)c5ccc6cc(C#N)cnn56)c(C(C)(C)O)cc4n3)CC2)CCN1C(=O)C1CN(c2cc(F)c(N3CCC(=O)NC3=O)c(F)c2)C1 yielded DC50 of 34

CC(C)(O)c1cc2nn(C34CCC(N5CCN(C6CCN(c7cc(F)c([C@H]8CCC(=O)NC8=O)c(F)c7)CC6)CC5)(CC3)CC4)cc2cc1NC(=O)c1ccc2cc(C#N)cnn12 yielded DC50 of 23

CC(C)(O)c1cc2nn([C@H]3CC[C@H](N4CCN(C5CCN(c6ccc7c(c6)C(=O)N(C6CCC(=O)NC6=O)C7=O)CC5)CC4)CC3)cc2cc1NC(=O)c1ccc2cc(C#N)cnn12 (stereo partly shown) yielded DC50 of 15

C[C@@H]1CN([C@H]2C[C@H](c3cc(F)c([C@H]4CCC(=O)NC4=O)c(F)c3)C2)CCN1[C@H]1CC[C@H](n2cc3cc(NC(=O)c4ccc5cc(C#N)cnn45)c(C(C)(C)O)cc3n2)CC1 yielded DC50 of 14

Entry source: patent US20250195513A1
